experiment.description: Noncompartmental pharmacokinetic parameters (Cmax, Tmax, AUC, Racc) in QD and BID cohorts of Form B
Type: in vivo, human
setup.conditions: human, plasma, oral, 300 mg, Cohort 2, 300 mg QD of Form B, Day 1, upon exclusion of data for patient that vomited immediately after dosing; read-out: Cmax, Mean
readout.name: Cmax

> print(dat)
                                        smi  recorded.result
1  CC(C)N1CCN(c2ccc(Nc3ncc4cc5n(c4n3)C3(CCCCC3)CNC5=O)nc2)CC1       55.2 ng/mL

====

experiment.description: Plasma concentration versus time of Compound I and metabolite Compound III in patients dosed QD or BID with Form B of Compound II plus fulvestrant
Type: in vivo, human
setup.conditions: human, plasma, oral, 200 mg, 200 mg QD of Form B, Day 1, […], Mean; read-out: Compound I Concentration
readout.name: concentration at 24 h (ng/mL)

> print(dat)
                                        smi  recorded.result
1  CC(C)N1CCN(c2ccc(Nc3ncc4cc5n(c4n3)C3(CCCCC3)CNC5=O)nc2)CC1             3.61
